Hello, the source for this data is PubChem BioAssay (NCI), in case you need it.

Test system: CAKI-1 renal
Test: NCI-60 one-dose screen, 48 h
Conditions: 10 µM unless noted
Procedure: Growth inhibition of the CAKI-1 human tumor cell line is measured as a screen for anti-cancer activity. Cells are grown in 96 well plates and exposed to the test compound for 48 hours. Compounds are tested at a single concentration, which is 10^-5 M for most compounds. The reported endpoint is percent growth (GI% or GIPRCNT), where numbers from 0 - 100% represent growth inhibition, and numbers from -100% - 0 represent cell death. For example, a value of 40 represents 60% growth inhibition. […]
Compounds without any hit were thinned out: in the full panel of roughly 83,000, 20% have a hit. Active and inactive are the calls of the source. The calls were made as follows: active = growth percent below 10; inactive = the rest.
Possible outcomes: 1 (yes) = active, 0 (no) = inactive

# compound, class label
measured = [
    ("Cc1ccc(C2CC(c3ccc(S(=O)(=O)NCCNc4nc(Nc5ccc(F)cc5)nc(N(C)C)n4)cc3)=Nc3c(N)nc(N)nc3N2)cc1 (centres undefined)", "0 (no)"),
    ("CC(C)c1sc(NC(=O)c2cc(NC(=O)c3cc(NC(=O)c4nccn4C)cn3C)cn2C)nc1C(=O)NCCCN(C)C", "0 (no)"),
    ("CC1[C@H]2[C@H](C[C@H]3[C@@H]4CC=C5c6sc(Nc7ccccc7F)nc6CC[C@]5(C)[C@H]4CC[C@@]32C)O[C@]12CC[C@@H](C)CO2 (some centres undefined)", "1 (yes)"),
    ("COc1ccc(/C=C2\\C(=O)Nc3ccc(Cl)cc32)cc1OCc1ccccn1", "0 (no)"),
]

====

test system: IGROV1 ovarian; experiment: NCI-60 one-dose screen, 48 h (100 = growth as untreated, 0 = no growth, -100 = all killed); conditions: 10 µM unless noted
About 83,000 compounds went through this panel and 20% of them were active in at least one assay; those are over-represented in the sample as a whole.
Cut-off 40% on growth, inclusive. At or above means TRUE; below means FALSE.

# compound, class label
records = [
    ("N#Cc1c(-c2ccc(Br)cc2)nc2n[nH]c(-c3ccc(Br)cc3)c2c1-c1ccc(C(F)(F)F)cc1", "FALSE"),
    ("Cn1cc(-c2cc(N)n3nc(-c4cn(C)c5ncc(Br)cc45)cc3n2)c2cc(Br)cnc21", "TRUE"),
    ("COc1ccc(-c2nc(SCC(C)C)nc(NCCc3c[nH]c4ccccc34)c2C#N)cc1", "TRUE"),
    ("Cc1cc(=O)oc2cc(OCCOc3ccc(/C=C/C(=O)Nc4ccccc4N)cc3)ccc12", "FALSE"),
    ("COc1c(F)ccc(C(=O)Nc2ccc3nc(NC(=O)C4CCCN(S(=O)(=O)c5cccc(Br)c5)C4)sc3c2)c1F (stereo not drawn)", "TRUE"),
    ("O=C(c1ccc(OCCN2CCOCC2)cc1)C1[C@H](c2ccc(Cl)cc2)[C@@H](c2ccccc2)NC12C(=O)Nc1ccc(Br)cc12 (stereo partly drawn)", "FALSE"),
    ("CN1CCN(c2ccc(C(=O)/C=C/c3cc(C(F)(F)F)cc(C(F)(F)F)c3)cc2)CC1", "FALSE"),
]

====

system: EKVX NSCLC; test: NCI-60 one-dose screen, 48 h; conditions: 10 µM unless noted
About 83,000 compounds went through this panel and 20% of them were active in at least one assay; those are over-represented in the sample as a whole. Calls of active or inactive are those of the source. How the source made its calls: active means growth percent below 10; inactive means the rest.
Possible outcomes: 1 (yes) (active), 0 (no) (inactive)

# compound, class label
rows = [
    ("Cc1cc2c(cc1Cl)C(=O)/C(=C/c1ccccc1)O2", "1 (yes)"),
    ("CC(C)c1sc(NC(=O)c2cc(NC(=O)c3cc(NC(=O)c4cscn4)cn3C)cn2C)nc1C(=O)NCCCN(C)C", "0 (no)"),
    ("Cc1ccc(C(=O)C(c2c[nH]c3ccccc23)c2c[nH]c3ccccc23)cc1", "0 (no)"),
    ("CSc1ccc(NC(=O)c2ccc3nnn(/C(C#N)=C/c4ccccn4)c3c2)cc1", "1 (yes)"),
    ("Cn1cc(-c2nc(N)nnc2-c2c[nH]c3ccc(Br)cc23)c2cc(Br)cnc21", "0 (no)"),
    ("CCCCSc1nc(NCCc2c[nH]c3ccccc23)c(C#N)c(-c2ccccc2)n1", "0 (no)"),
    ("COc1cc(CNC(=O)/C=C/c2ccc3c(c2)OCO3)ccc1OCc1cn(-c2cccc(C(F)(F)F)c2)nn1", "1 (yes)"),
    ("CC1(C)CC[C@]2(C(=O)O)CC[C@]3(C)C(=CCC4[C@@]5(C)C[C@@H](O)[C@@H]6OC(c7cccc(Br)c7)OC[C@@]6(C)C5CC[C@]43C)C2C1 (stereo partly drawn)", "0 (no)"),
    ("COc1ccc(NC(=O)Cn2c(/C=C/c3cccc([N+](=O)[O-])c3)nc3ccccc3c2=O)cc1", "0 (no)"),
    ("COc1ccc(-c2nc(SC(C)C)nc(NCCc3c[nH]c4ccccc34)c2C#N)cc1", "0 (no)"),
    ("COc1ccc(-c2nc3cc(C)ccc3n2CC(=O)N=Nc2c(O)[nH]c3ccccc23)cc1", "0 (no)"),
    ("O=C(Cn1c(/C=C/c2cccc([N+](=O)[O-])c2)nc2ccccc2c1=O)Nc1ccccc1", "0 (no)"),
    ("O=C(N=Nc1c(O)[nH]c2ccc([N+](=O)[O-])cc12)c1ccc2nc(-c3ccccc3)[nH]c2c1", "0 (no)"),
    ("CC(=O)Nc1cccc(Nc2nc(N[C@H]3CCCc4ccccc43)c3ccccc3n2)c1", "0 (no)"),
    ("Cc1ccc([C@H]2C(C(=O)c3ccc(Cl)cc3)C3(N[C@@H]2c2ccccc2)C(=O)Nc2ccc(Br)cc23)cc1 (stereo partly drawn)", "0 (no)"),
    ("Cc1cc2nc3c4ccccc4n(CCNCCN(C)C)c3nc2cc1C", "0 (no)"),
    ("COC(=O)/C=C/c1cccc2c1C(=O)NC(C)(c1cc3cc4ccccc4cc3oc1=O)N2 (stereo not drawn)", "0 (no)"),
    ("C[C@H](Nc1nc(NCCc2ccccc2)nc2ccccc12)c1ccccc1", "1 (yes)"),
]

====

system: HOP-92 NSCLC; assay: NCI-60 one-dose screen, 48 h (100 = growth as untreated, 0 = no growth, -100 = all killed); conditions: 10 µM unless noted
The panel holds about 83,000 compounds, 20% with a hit somewhere; the sample as a whole holds those more often. Calls of active or inactive are those of the source. How the source made its calls: active means growth percent below 10; inactive means the rest.
measured quantity: growth

# molecule, test target, measured quantity, observed value
data = [
    ("CC(=O)OCC1OC(OC2C(COC(C)=O)OC(n3cc(COc4ccc5ccc(=O)oc5c4)nn3)C(OC(C)=O)C2OC(C)=O)C(OC(C)=O)C(OC(C)=O)C1OC(C)=O (stereo not drawn)", "HOP-92 NSCLC", "growth", "94.4% (inactive)"),
    ("CC(C)CSc1nc(NCCc2c[nH]c3ccccc23)c(C#N)c(-c2ccc(F)cc2)n1", "HOP-92 NSCLC", "growth", "50.9% (inactive)"),
    ("C=Cn1cc(C(=O)O)c(=O)c2cc(F)c(N3CCN(c4nccc(-c5nccs5)n4)CC3)cc21", "HOP-92 NSCLC", "growth", "-32.7% (active)"),
    ("Cn1cc(-c2nnc(N)nc2-c2c[nH]c3ccc(F)cc23)c2cccnc21", "HOP-92 NSCLC", "growth", "92.8% (inactive)"),
    ("C=C1CCC2C3(C)COC(c4ccccc4F)OC3CCC2(C)C1CC(O)C1=CCOC1=O (stereo not drawn)", "HOP-92 NSCLC", "growth", "55.5% (inactive)"),
    ("COc1ccc(C(=O)/C=C/c2ccc(OCc3ccccc3)c(OC)c2)cc1OC", "HOP-92 NSCLC", "growth", "38.3% (inactive)"),
    ("COc1ccc(-c2nnc3ccc(N/N=C/c4ccc(O)cc4)nn23)cc1", "HOP-92 NSCLC", "growth", "31.3% (inactive)"),
    ("C#C[C@]1(O)CC[C@H]2[C@@H]3CC=C4c5sc(-c6ccc(O)c(O)c6)nc5CC[C@]4(C)[C@H]3CC[C@@]21C", "HOP-92 NSCLC", "growth", "-53.8% (active)"),
]

====

system: HOP-92 NSCLC; experiment: NCI-60 one-dose screen, 48 h (100 = growth as untreated, 0 = no growth, -100 = all killed); settings: 10 µM unless noted
About 83,000 compounds went through this panel and 20% of them were active in at least one assay; those are over-represented in the sample as a whole.

# molecule, growth (%)
rows = [
    ("CC(=O)Nc1cccc(Nc2nc(N[C@H]3CCCc4ccccc43)c3ccccc3n2)c1", 110),
    ("Nc1nnc(-c2c[nH]c3ncc(Br)cc23)c(-c2c[nH]c3ccc(F)cc23)n1", 72.9),
    ("CCCCOc1ccc(NC(=O)c2sc3nc(C)ccc3c2N)cc1", -37.2),
    ("COc1ccccc1C(=O)NN1C(=O)/C(=C/C2=Cc3ccccc3OC2)SC1=S", 86.6),
    ("N#Cc1c(NCc2ccccc2)n[nH]c1Nc1ccccc1", 62.3),
    ("C=C1CC[C@@H]2[C@]3(C)COC(c4cn(-c5ccccc5)nc4-c4cccc([N+](=O)[O-])c4)O[C@@H]3CC[C@@]2(C)[C@@H]1C/C=C1/C(=O)OC[C@H]1O (stereo partly specified)", -84.3),
    ("C=C1CCC2C3(C)COC(c4cccc(F)c4)OC3CCC2(C)C1C/C=C1/C(=O)OCC1O (stereo unspecified)", -6.12),
    ("Cc1ccc([C@H]2C(C(=O)c3ccc(Cl)cc3)C3(N[C@@H]2c2ccccc2)C(=O)Nc2ccc(Cl)cc23)cc1 (stereo partly specified)", 16.6),
    ("CCCCCCCCc1ccc(C(=O)Nc2cccc(P(=O)(O)O)c2)cc1", 114),
    ("COc1cc(-c2nc3ccc(C)cc3[nH]2)ccc1OCc1nnc(-c2ccc(Br)cc2)o1", 18.8),
    ("CCCSc1nc(NCCc2c[nH]c3ccccc23)c(C#N)c(-c2ccc(F)cc2)n1", 52.1),
    ("O=C(N=Nc1c(O)[nH]c2ccc([N+](=O)[O-])cc12)c1ccc2nc(-c3ccccc3)[nH]c2c1", 30.8),
    ("COc1ccc(C(=O)/C=C/c2cccc(Cl)c2Cl)cc1S(N)(=O)=O", 21.9),
    ("O=C(NNc1nc2cc(F)ccc2n2c(CN3CC4CNCC4C3)ccc12)c1ccncn1 (stereo unspecified)", 34.5),
    ("COc1cc(/C=C/C(=O)c2ccccc2)ccc1Oc1nc(Nc2ccc(F)cc2)nc(N(C)C)n1", 28.7),
    ("CCCCc1c(Nn2cnnn2)no[n+]1[O-]", 46.4),
    ("O=C(/C=C/c1ccc(-c2ccccc2)cc1)c1nc2ccccc2n1Cc1ccc(Br)cc1", 40.1),
    ("COc1ccc2[nH]cc(-c3cc(N)n4nc(-c5cn(C)c6ccccc56)cc4n3)c2c1", -71),
    ("COc1cc2oc(-c3cccc(NC(=O)[C@H](CC(N)=O)NC(=O)OC(C)(C)C)c3)cc(=O)c2c(OC)c1OC", 74.9),
    ("Cn1cc(NC(=O)c2cc(NC(=O)c3ccc(C#Cc4ccccc4)cc3)cn2C)cc1C(=O)NCCCN1CCOCC1", -11.5),
    ("COc1cc2c(c(OC)c1OC)C(=O)CC(c1cccc(NC(=O)c3cccc(NC(=O)[C@H](C)NC(=O)OC(C)(C)C)c3)c1)O2 (stereo partly specified)", 74.4),
    ("O=c1onc(-c2cc3ccccc3nc2Cl)n1-c1cccc2ccccc12", 38.7),
    ("Cc1c(C(=O)NNC(=O)c2ccc(Cl)cc2)nnn1-c1ccc(Cl)cc1", 79.1),
    ("CN1CCc2c(sc3ncnc(N/N=C/c4ccc(Cl)cc4Cl)c23)C1", -47.2),
    ("CC(=O)Nc1cccc(-c2nc3cc(-c4ccc(O)cc4)ccc3n2C)c1", 93.7),
    ("COc1ccc(C(=O)/C=C/c2ccc(OCc3ccc(F)cc3)c(OC)c2)cc1OC", -14.8),
    ("C(=C\\c1cc(/C=C/c2ccccc2)c2ccccc2n1)/c1ccccc1", 84),
    ("C=C1CC[C@@H]2[C@]3(C)COC(c4cn(-c5ccccc5)nc4-c4ccccc4)O[C@@H]3CC[C@@]2(C)[C@@H]1C/C=C1/C(=O)OC[C@H]1O (stereo partly specified)", -88.1),
    ("COc1ccc(NC(=O)c2sc3nc(C(C)C)ccc3c2N)cc1", 61.4),
    ("O=[N+]([O-])c1ccc(/C=C/c2nc3ccccc3n3c(=S)[nH]nc23)cc1", 68.2),
    ("O=C(c1ccc(OCCN2CCOCC2)cc1)C1[C@H](c2ccc(Cl)cc2)[C@@H](c2ccccc2)NC12C(=O)Nc1ccc(Cl)cc12 (stereo partly specified)", -11.8),
    ("C=C1CC[C@@H]2[C@]3(C)COC(c4cn[nH]c4-c4ccccc4)O[C@@H]3CC[C@@]2(C)[C@@H]1C/C=C1/C(=O)OCC1O (stereo partly specified)", -12.4),
    ("N#Cc1c(-c2ccccc2Cl)cc(-c2c[nH]c3ccccc23)[nH]c1=O", 44.9),
    ("C#CCOc1cc(N(CC)CC)ccc1C(C(=O)NC(C)(C)C)N(C(=O)C1CCc2cc(F)ccc2O1)c1ccc(F)cc1 (stereo unspecified)", 39.8),
    ("COCOc1cc2oc(C(=O)N[C@@H](Cc3ccccc3)C(O)C(=O)NCc3ccccc3)c(C)c(=O)c2cc1OCOC (stereo partly specified)", 14.4),
    ("CN(C)CCCNC(=O)c1cc(NC(=O)c2cc(NC(=O)c3ccc(C#Cc4ccccc4)cc3)cn2C)cn1C", -26),
]
